- Assayed system: TLR8 (Homo sapiens, UniProt Q9NR97)
- Sequence (Q9NR97 27-1041): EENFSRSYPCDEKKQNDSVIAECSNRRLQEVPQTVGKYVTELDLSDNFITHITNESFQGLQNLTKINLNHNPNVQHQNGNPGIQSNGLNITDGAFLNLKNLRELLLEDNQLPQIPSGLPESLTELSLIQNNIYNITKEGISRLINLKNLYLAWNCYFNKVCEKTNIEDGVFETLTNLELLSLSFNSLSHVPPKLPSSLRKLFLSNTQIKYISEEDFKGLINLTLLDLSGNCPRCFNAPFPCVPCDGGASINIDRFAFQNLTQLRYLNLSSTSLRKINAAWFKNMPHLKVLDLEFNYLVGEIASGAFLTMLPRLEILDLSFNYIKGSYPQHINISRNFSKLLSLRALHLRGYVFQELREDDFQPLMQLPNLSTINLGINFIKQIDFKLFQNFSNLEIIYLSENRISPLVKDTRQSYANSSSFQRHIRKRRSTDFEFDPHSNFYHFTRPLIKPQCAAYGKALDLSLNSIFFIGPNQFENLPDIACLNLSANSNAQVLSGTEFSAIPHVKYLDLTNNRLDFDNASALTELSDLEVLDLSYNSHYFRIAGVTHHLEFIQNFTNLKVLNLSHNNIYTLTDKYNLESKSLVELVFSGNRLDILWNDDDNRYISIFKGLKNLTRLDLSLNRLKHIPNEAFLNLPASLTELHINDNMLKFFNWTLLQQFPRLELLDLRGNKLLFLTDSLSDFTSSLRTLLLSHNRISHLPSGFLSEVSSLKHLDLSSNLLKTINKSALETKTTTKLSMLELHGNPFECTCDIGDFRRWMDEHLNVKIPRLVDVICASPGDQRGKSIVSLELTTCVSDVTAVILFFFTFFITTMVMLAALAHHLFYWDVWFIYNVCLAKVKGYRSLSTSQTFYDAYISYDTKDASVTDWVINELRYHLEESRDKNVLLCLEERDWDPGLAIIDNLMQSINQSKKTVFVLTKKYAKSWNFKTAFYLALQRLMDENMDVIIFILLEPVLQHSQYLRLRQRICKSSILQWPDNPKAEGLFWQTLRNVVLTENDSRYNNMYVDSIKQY
- Protocol text: HEK-TLR8 NF-κB-luciferase reporter, R848 or Motolimod stimulation (potentiation or inhibition)
- Type: cell-based
- Parameters: expressed in transfected cells; host or cells: 293XLhTLR8 (HEK293)
- Particulars: ASO 500 nM; relative to R848 only
Cut-off 1 on TLR8 500 nM (averaged NF-κB-Luciferase level relative to R848 condition, fold increase), inclusive. At or above means yes; below means no.

A selection of reference data follows.
[
  {
    "Sequence code": "TTTTGGCTGGGATCAA (antisense; LNA-modified, pattern not given here) [CAMSAP1-4697 LNA KL]",
    "Assayed system": "TLR8 (Homo sapiens, UniProt Q9NR97)",
    "Qualitative label": "yes"
  },
  {
    "Sequence code": "GGTCTTGGCTTCGTGG (antisense; LNA-modified, pattern not given here) [MB21D1-523 LNA V1]",
    "Assayed system": "TLR8 (Homo sapiens, UniProt Q9NR97)",
    "Qualitative label": "yes"
  },
  {
    "Sequence code": "TCCATACCCAAGGCAT (antisense; LNA-modified, pattern not given here) [CTNN2B-2446 LNA V1]",
    "Assayed system": "TLR8 (Homo sapiens, UniProt Q9NR97)",
    "Qualitative label": "yes"
  },
  {
    "Sequence code": "GATAGCACCTTCAGCA (antisense; LNA-modified, pattern not given here) [CTNN2B-1294 LNA KL]",
    "Assayed system": "TLR8 (Homo sapiens, UniProt Q9NR97)",
    "Qualitative label": "yes"
  },
  {
    "Sequence code": "GCACACTTCGTACCCA (antisense; LNA-modified, pattern not given here) [CAMSAP1-4915 LNA V1]",
    "Assayed system": "TLR8 (Homo sapiens, UniProt Q9NR97)",
    "Qualitative label": "yes"
  },
  {
    "Sequence code": "TGGCCTCCCATCTCCT (antisense; LNA-modified, pattern not given here) [HPRT LNA-329 V1]",
    "Assayed system": "TLR8 (Homo sapiens, UniProt Q9NR97)",
    "Qualitative label": "yes"
  },
  {
    "Sequence code": "GTGATCTTGACATGCT (antisense; LNA-modified, pattern not given here) [EGFR-2790 LNA KL]",
    "Assayed system": "TLR8 (Homo sapiens, UniProt Q9NR97)",
    "Qualitative label": "yes"
  },
  {
    "Sequence code": "CAACACTTCGTGGGGT (antisense; LNA-modified, pattern not given here) [HPRT LNA-667 V1]",
    "Assayed system": "TLR8 (Homo sapiens, UniProt Q9NR97)",
    "Qualitative label": "no"
  },
  {
    "Sequence code": "TGCTCCTCGGTCTCCC (antisense; LNA-modified, pattern not given here) [CAMSAP1-1850 LNA V1]",
    "Assayed system": "TLR8 (Homo sapiens, UniProt Q9NR97)",
    "Qualitative label": "yes"
  },
  {
    "Sequence code": "GTCCTTGCACGTGGCT (antisense; LNA-modified, pattern not given here) [EGFR-1015 LNA V1]",
    "Assayed system": "TLR8 (Homo sapiens, UniProt Q9NR97)",
    "Qualitative label": "no"
  }
]

Attention now shifts to the item below.
In: Record TGTCCTTGCACGTGGC (antisense; LNA-modified, pattern not given here) [EGFR-1016 LNA V1] ; criterion: TLR8 500 nM (averaged NF-κB-Luciferase level relative to R848 condition, fold increase) no lower than 1. Met?
Out: yes
